observedProperty: IC50 (µM)
Express the result in µM but write the number alone.

Return IC50 measured with Voltage-gated inwardly rectifying potassium channel KCNH2 (Homo sapiens, UniProt Q12809) given this molecule: "CC(C)(O)c1cccc(-c2ccc3nc(-c4ccc(Cl)cc4)cn3c2)c1" 1.5

----------
Would you kindly list Emax for each of these molecules?
targetUnderTest: Nuclear receptor subfamily 4 group A member 2 (Mus musculus) (UniProt Q06219)
Sequence (Q06219 whole entry): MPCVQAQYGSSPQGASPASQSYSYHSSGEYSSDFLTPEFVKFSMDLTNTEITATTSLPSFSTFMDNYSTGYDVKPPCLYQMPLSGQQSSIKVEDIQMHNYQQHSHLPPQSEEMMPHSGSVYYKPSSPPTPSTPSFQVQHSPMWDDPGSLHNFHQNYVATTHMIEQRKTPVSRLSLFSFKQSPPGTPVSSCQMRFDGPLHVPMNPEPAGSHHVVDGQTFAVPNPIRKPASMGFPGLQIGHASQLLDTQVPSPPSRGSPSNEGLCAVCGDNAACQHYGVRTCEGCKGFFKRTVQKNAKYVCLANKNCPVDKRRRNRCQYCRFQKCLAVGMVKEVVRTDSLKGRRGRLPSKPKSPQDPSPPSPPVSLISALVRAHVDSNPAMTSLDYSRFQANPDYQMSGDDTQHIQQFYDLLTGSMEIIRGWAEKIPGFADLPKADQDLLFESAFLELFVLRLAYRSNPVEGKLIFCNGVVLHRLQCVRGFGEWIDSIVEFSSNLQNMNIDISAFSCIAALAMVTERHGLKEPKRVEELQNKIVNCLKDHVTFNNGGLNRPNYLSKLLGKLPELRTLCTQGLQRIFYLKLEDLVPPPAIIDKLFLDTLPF
measurementProtocol: Agonist activity at Nurr1 in mouse N2A cells harboring NBRE by luciferase reporter gene assay
Assay type: cell-based
Write the numeric value and follow it with the unit.

Emax lookup needed for "O=C(Nc1cnoc1)c1cn2cc(-c3ccccn3)ccc2n1" , thanks. 85%

Dear colleague, I am looking for the recorded Emax of the following molecule: "O=C(Nc1cc(F)ccc1F)c1cn2cc(-c3ccccn3)ccc2n1" 68%

Query (molecule): "O=C(Nc1nncs1)c1cn2cc(-c3ccccn3)ccc2n1" ; field requested: Emax 70%

What Emax value was documented for this molecule, "O=C(Nc1ccccn1)c1cn2cc(-c3ccccn3)ccc2n1" ? 87%

Given "O=C(Nc1nccs1)c1cn2cc(-c3ccccn3)ccc2n1" , state its recorded Emax. 72%

What does the record list as Emax for "O=C(Nc1cc(F)cc(F)c1)c1cn2cc(-c3ccccn3)ccc2n1" ? 85%

# query: Emax of entry "O=C(Nc1ccon1)c1cn2cc(-c3ccccn3)ccc2n1" 62%

Item "OCc1cccc(-c2ccc3nc(-c4ccc(Cl)cc4)cn3c2)c1" has what recorded Emax? 240%

So what does the record say about Emax for "O=C(Nc1ccsc1)c1cn2cc(-c3ccccn3)ccc2n1" ? 85%

Value lookup for Emax; key = "O=C(Nc1cccc(F)c1)c1cn2cc(-c3ccccn3)ccc2n1" 103%

GET /values?readout=Emax&item= "O=C(Nc1ccccc1)c1cn2cc(-c3ccccn3)ccc2n1" 204%
